# EXPERIMENT_DESCRIPTION: NCI Yeast Anticancer Drug Screen. Data for the cln2 rad14 strain (AID 165);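 note: 0% = growth equal to vehicle treated cultures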
# TEST_CONTEXT: S. cerevisiae cln2 rad14 strain, at 50.0 µM, hits give high values
The panel holds about 79,000 compounds, 15% with a hit somewhere; the sample as a whole holds those more often.
growth inhibition by entry:
Please state the figure in %; there is no need to write the unit.

Example compounds with recorded growth inhibition:
- COMPOUND: "CC(O)(c1ccco1)c1nc2ccccc2s1 (stereo not drawn)"
  VALUE: -6.2
- COMPOUND: "COc1cc(C(=O)CBr)c(OC)cc1C"
  VALUE: 17
- COMPOUND: "COc1ccc(C2c3cc4c(cc3OC3(O)CCCC(=O)C23)OCO4)cc1 (stereo not drawn)"
  VALUE: -39.3
- COMPOUND: "CNC(=S)Nc1ccccc1"
  VALUE: -8.15
- COMPOUND: "CN(NC(=O)CCCl)C1=NCCN1"
  VALUE: -11
- COMPOUND: "CC(=O)Oc1cccc2c1C(=O)c1ccccc1C2=O"
  VALUE: -4.2

Req: Reported growth inhibition for `Cc1cc2c(cc1N)C(C)(C)CCC2(C)C` : what is it?
Resp: -24.9

Req: Consider the compound `COc1cc2c(cc1C/C=C/c1ccccc1)OCO2` and give its measured growth inhibition.
Resp: -9.5

Req: // returns reported growth inhibition for input CC1CC2=C(C1)C(C1(C)C(=O)CC3C(C1=O)C3(C)C)C(C)C2=O (stereo not drawn)
Resp: 3.3

Req: Recorded growth inhibition for CSc1nc(NC2OCC(OC(C)=O)C(OC(C)=O)C2OC(C)=O)c2c(n1)OCC2=O (stereo not drawn) , please?
Resp: 6.1

Req: May I ask what growth inhibition has been recorded for CC1CCCC1N (stereo not drawn) ?
Resp: -27.1

Req: What growth inhibition value was documented for this compound, CC(c1ccccc1)n1cnc2c(N(CCO)CCO)ncnc21 (stereo not drawn) ?
Resp: -4.05

Req: So what does the record say about growth inhibition for CCOP(=O)(OCC)C(C(=O)OC)C(=O)C(=O)Nc1c(C)cc(Br)cc1C (stereo not drawn) ?
Resp: -1.8

* * *

# EXPERIMENT_DESCRIPTION: NCI Yeast Anticancer Drug Screen. Data for the bub3 strain (AID 167)
# TEST_CONTEXT: S. cerevisiae bub3 mutant strain, at 50.0 µM
The panel holds about 79,000 compounds, 15% with a hit somewhere; the sample as a whole holds those more often. Active and inactive are the calls of the source. No stated cut-off is given here; in the data, active means growth inhibition above about 70%; inactive means the rest.
Your reply should match one of these outcome classes. true for active, false for inactive

Example entries and their recorded answers appear below.
- MOLECULE: "CC(=O)N(CN1C(=O)CCC1C(=O)O)c1ccccc1Cl (configuration not stated)"
  ANSWER_LABEL: "false"
- MOLECULE: "CCOc1ccc(Nc2nc(C(Cl)(Cl)Cl)cc(C(Cl)(Cl)Cl)n2)cc1CN(CC)CC"
  ANSWER_LABEL: "true"
- MOLECULE: "CN(C)C(=O)c1ccc([N+](=O)[O-])cc1"
  ANSWER_LABEL: "false"

Req: Test call for this molecule, please: `CCOC(=O)c1c(/C=N\Nc2ccccc2)nc2ccccc2c1-c1ccccc1`
Resp: false

Req: Lab log entry: `CC(C)(C)C(N)=O` — outcome as called in the assay?
Resp: false

Req: Recorded call for `CCCCOC(=O)/C(=C\c1cccc(OC)c1)NC(=O)c1ccccc1` ?
Resp: false

Req: Hey, what did the test say about O=C(O)C(Oc1ccc(Cl)cc1Cl)C(Oc1ccc(Cl)cc1Cl)C(=O)O (configuration not stated) ?
Resp: false

Req: Recorded test call requested for `Cc1ncc(CSc2ccccc2N)c(CO)c1O`
Resp: false

Req: Query: recorded result category for `CCOC(=O)c1c(Br)c(-c2ccc([N+](=O)[O-])cc2)c(Br)n1C` in this test
Resp: false

Req: // param item: CCN(CC)P1(=O)C=C(C)C2C1C1C=C(C)C2P1(=O)N(CC)CC (configuration not stated) ; yields the recorded call
Resp: false

Req: Give the logged outcome of this assay for the following molecule: CCCCCC1(C=O)C(=O)NC(=O)N1C (configuration not stated)
Resp: false

Req: Please let me know the test result on file for `N=C(N)c1ccc(C(=N)N)cc1` .
Resp: false

The values you see were collected from PubChem BioAssay (NCI).
